B1: HDV Ribozyme (parent)
chain: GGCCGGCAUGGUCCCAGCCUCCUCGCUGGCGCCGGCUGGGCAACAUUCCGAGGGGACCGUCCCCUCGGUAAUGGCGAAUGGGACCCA

Variants of: B1
ASSAY EXPLANATION: self-cleavage, relative activity (ratio to wild type); higher = more cleavage; co-transcriptional
METRIC: self-cleavage

Study these solved cases before continuing.
VARIANT NAME	EXPERIMENTAL VALUE
A51C C84U	0.831
A71U C85A	1.08
C30G C84U	0.0268

Dear colleague, I am looking for the recorded self-cleavage of the following variant: G55A C62A 1.01
